Method Description: AUC (0 to t) in mouse plasma at 50 mg/kg, po
Type: ADME, organism-based
Set-up: dose 50 mg/kg, route oral
Recorded Endpoint: AUC(0-t) (ng·h/mL)

> print(dat)
                                   molecule  recorded.endpoint  unit.abbrev  test.result
1  COC(=O)C(CCCN(C)CCCc1nc2ccccc2[nH]1)(c1ccc(Br)cc1)C(C)C (stereo unspecified)           AUC(0-t)      ng·h/mL         3900

====

Method Description: Cmax in mouse plasma at 50 mg/kg, po
Assay type: ADME, organism-based
Parameters: dose 50 mg/kg, route oral
Recorded Endpoint: Cmax (ng/mL)

> print(dat)
                                   compound  recorded.endpoint  test.result
1  COC(=O)C(CCCN(C)CCCc1nc2ccccc2[nH]1)(c1ccc(Br)cc1)C(C)C (stereo unspecified)               Cmax         1620

====

Target Or Test System: Voltage-dependent T-type calcium channel subunit alpha-1G (Homo sapiens, UniProt O43497)
Sequence (O43497 whole entry): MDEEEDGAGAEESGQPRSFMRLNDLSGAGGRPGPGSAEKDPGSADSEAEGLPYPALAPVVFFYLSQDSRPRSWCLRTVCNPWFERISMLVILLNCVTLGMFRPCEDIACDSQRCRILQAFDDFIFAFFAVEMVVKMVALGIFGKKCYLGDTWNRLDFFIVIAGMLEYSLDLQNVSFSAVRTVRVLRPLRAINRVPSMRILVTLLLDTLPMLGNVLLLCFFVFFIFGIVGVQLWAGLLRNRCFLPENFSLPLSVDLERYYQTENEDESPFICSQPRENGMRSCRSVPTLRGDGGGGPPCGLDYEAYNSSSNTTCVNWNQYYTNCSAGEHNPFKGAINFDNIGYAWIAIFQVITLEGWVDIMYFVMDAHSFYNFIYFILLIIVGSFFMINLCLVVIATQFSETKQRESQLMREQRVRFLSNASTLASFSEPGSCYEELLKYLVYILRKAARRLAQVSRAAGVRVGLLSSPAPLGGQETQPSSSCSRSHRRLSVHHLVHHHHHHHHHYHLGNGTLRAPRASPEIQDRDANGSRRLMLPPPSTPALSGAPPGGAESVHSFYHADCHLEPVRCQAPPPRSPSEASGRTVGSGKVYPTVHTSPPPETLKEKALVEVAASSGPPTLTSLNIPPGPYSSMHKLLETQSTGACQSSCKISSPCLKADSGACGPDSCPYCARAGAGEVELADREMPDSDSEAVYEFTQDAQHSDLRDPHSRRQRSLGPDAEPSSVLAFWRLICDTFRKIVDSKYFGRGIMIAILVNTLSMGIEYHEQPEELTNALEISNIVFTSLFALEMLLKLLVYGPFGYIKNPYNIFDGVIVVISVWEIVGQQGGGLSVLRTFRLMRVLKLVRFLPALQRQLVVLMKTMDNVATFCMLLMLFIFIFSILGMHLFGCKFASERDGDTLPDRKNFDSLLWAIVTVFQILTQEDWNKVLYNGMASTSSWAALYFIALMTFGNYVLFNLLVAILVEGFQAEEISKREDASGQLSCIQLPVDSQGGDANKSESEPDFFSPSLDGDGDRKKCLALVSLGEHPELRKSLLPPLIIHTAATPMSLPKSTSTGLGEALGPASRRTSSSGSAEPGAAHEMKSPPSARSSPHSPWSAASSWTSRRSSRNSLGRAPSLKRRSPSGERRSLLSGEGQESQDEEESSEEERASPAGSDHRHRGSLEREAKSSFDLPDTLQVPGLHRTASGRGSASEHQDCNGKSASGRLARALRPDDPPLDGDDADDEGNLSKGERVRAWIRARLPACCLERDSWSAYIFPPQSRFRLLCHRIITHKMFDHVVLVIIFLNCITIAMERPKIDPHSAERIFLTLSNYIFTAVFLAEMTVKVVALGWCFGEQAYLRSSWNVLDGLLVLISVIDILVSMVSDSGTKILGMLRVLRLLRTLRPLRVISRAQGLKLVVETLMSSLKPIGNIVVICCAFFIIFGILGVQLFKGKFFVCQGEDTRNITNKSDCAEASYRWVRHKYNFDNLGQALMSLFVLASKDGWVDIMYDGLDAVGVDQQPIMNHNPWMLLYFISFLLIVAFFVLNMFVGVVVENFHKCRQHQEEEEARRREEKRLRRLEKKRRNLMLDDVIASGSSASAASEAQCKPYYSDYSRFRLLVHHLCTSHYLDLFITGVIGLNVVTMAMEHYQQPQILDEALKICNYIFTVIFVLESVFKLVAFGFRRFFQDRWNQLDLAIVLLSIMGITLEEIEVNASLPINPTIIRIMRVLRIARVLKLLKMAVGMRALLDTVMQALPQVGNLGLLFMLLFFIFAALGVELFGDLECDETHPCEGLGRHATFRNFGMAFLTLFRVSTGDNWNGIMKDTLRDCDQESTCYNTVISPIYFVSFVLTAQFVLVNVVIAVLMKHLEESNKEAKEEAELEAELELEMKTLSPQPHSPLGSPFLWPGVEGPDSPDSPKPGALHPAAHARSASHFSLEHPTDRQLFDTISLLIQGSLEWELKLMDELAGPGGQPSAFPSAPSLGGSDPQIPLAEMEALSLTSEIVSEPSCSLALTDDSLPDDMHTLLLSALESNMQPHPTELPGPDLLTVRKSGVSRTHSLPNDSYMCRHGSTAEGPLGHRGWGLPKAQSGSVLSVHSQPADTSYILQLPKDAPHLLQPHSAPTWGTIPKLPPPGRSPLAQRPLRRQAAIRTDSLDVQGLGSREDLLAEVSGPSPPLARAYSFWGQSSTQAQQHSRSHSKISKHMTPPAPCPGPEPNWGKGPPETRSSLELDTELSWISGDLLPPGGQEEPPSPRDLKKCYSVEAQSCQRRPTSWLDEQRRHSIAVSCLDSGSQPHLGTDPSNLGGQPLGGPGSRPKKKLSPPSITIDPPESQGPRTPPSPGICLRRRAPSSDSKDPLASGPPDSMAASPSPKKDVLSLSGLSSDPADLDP
Method Description: Antagonist activity at T type calcium channel alpha1G expressed in HEK293 cells assessed as inhibition of peak currents at 10 uM by whole-cell patch-clamp method
Type: functional, cell-based
Recorded inhibition values for a group of compounds are listed next.
Recorded Endpoint: inhibition (%)

> print(dat)
                                   compound  recorded.endpoint  test.result
1  COC(=O)C(CCCN(C)CCCc1nc2ccccc2[nH]1)(c1ccc(OC)cc1)C(C)C (configuration not stated)         inhibition         93.5
2  COC(=O)C(CCCN1CCN(Cc2ccc(F)cc2)CC1)(c1ccc(Br)cc1)C(C)C (configuration not stated)         inhibition         96.5
3  CCOC(=O)C(CCCN1CCN(Cc2ccc(F)cc2)CC1)(c1ccccc1)C(C)C (configuration not stated)         inhibition           94
4  COC(=O)C(CCCN1CCN(Cc2ccc(OC)cc2)CC1)(c1ccc(Br)cc1)C(C)C (configuration not stated)         inhibition           96
5  CCOC(=O)C(CCCN(C)CCCc1nc2ccccc2[nH]1)(c1ccccc1)C(C)C (configuration not stated)         inhibition         98.3
6  COC(=O)C(CCCN1CCN(c2ccccc2OC)CC1)(c1ccc(Br)cc1)C(C)C (configuration not stated)         inhibition         94.1
7  CCOC(=O)C(CCCN(C)CCCc1nc2cc(C)c(C)cc2[nH]1)(c1ccccc1)C(C)C (configuration not stated)         inhibition         91.4

====

Recorded IC50 values for a group of compounds are listed next.
Target Or Test System: Voltage-dependent T-type calcium channel subunit alpha-1G (Homo sapiens, UniProt O43497)
Method Description: Antagonist activity at T type calcium channel alpha1G expressed in HEK293 cells assessed as inhibition of peak currents by whole-cell patch-clamp method
Format: functional, cell-based
Recorded Endpoint: IC50 (nM)

> print(dat)
                                   compound                     target.or.test.system  test.result
1  COC(=O)C(CCCN1CCN(Cc2cccc(C(F)(F)F)c2)CC1)(c1ccc(Br)cc1)C(C)C (configuration not stated)  Voltage-dependent T-type calcium channel subunit alpha-1G (Homo sapiens, UniProt O43497)          280
2  COC(=O)C(CCCN1CCN(c2ccccc2OC)CC1)(c1ccc(Br)cc1)C(C)C (configuration not stated)  Voltage-dependent T-type calcium channel subunit alpha-1G (Homo sapiens, UniProt O43497)           95

====

Method Description: Tmax in mouse brain at 50 mg/kg, po
Assay type: ADME, organism-based
Parameters: dose 50 mg/kg, route oral
Recorded Endpoint: Tmax (h)

> print(dat)
                                   compound  unit.abbrev  test.result
1  COC(=O)C(CCCN(C)CCCc1nc2ccccc2[nH]1)(c1ccc(Br)cc1)C(C)C (stereo unspecified)            h            1

====

Target Or Test System: UniProt Q12809
Sequence (Q12809 whole entry): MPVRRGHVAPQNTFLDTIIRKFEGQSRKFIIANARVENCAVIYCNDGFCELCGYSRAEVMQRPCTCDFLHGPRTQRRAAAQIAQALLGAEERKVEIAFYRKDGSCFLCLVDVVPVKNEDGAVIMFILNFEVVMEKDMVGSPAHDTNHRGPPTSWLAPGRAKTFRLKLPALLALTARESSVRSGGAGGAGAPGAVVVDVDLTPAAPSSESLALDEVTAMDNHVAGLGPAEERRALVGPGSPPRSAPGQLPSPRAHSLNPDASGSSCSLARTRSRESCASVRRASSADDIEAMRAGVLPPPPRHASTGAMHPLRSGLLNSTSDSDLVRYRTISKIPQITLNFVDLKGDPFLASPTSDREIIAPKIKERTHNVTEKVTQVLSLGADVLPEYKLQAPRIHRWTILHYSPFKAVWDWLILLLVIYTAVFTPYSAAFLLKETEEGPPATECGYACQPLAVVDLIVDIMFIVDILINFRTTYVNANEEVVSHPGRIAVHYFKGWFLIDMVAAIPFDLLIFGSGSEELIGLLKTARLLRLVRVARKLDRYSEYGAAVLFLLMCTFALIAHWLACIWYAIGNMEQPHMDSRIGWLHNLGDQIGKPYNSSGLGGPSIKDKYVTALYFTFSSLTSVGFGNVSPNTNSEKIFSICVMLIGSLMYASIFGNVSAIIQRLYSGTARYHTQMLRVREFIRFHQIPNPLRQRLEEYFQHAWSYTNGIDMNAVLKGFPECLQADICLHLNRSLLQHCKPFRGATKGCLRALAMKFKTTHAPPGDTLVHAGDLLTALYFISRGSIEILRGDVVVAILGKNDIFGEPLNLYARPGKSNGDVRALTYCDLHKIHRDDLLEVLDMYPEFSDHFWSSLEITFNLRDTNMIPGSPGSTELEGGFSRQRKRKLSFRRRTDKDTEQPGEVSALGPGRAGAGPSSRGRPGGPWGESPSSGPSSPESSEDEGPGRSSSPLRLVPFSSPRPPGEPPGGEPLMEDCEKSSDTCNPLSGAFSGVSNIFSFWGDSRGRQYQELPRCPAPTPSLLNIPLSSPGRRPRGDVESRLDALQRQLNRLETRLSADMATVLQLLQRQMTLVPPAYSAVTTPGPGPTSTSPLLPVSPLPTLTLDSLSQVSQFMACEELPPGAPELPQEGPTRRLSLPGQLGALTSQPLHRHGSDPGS
pIC50: −log10 of the molar value.
Recorded Endpoint: pIC50

> print(dat)
                                   compound  recorded.endpoint  test.result
1  COC(=O)C(CCCN(C)CCCc1nc2ccccc2[nH]1)(c1ccc(Br)cc1)C(C)C (stereo unspecified)              pIC50         6.75
